# Tested on: IGFBP-1
# protocol details: IGFBP-1 mRNA expression in HepG2 cells
# Assay type: cell-based, human
# run parameters: Experiment 2, insulin treated: HepG2 cells transfected with oligomeric compound, 1 nM insulin for four hours; UTC + 1 nM insulin = 100
In the oligonucleotide strings, read from the 5' end, every base follows the letter of its sugar. An asterisk marks phosphorothioate; unmarked linkages are phosphodiester. Other units and linkages are bracketed, terminal groups are in braces. A string of capitals states the bases alone. e = 2'-O-(2-methoxyethyl) (MOE); [5mC] = 5-methylcytosine; d = 2'-deoxy (DNA)
Listing of entries alongside the reported IGFBP1 mRNA expression.

{"substance": "328115 (antisense eA*eG*eA*eA*eG*eG*eT*eG*eG*eG*eG*eA*eG*e[5mC]*eA*eG*e[5mC]*eG*eT*e[5mC]*eA) [compound 328115]", "IGFBP1 mRNA expression": 120}
{"substance": "327923 (antisense eG*eA*eA*eA*eG*eA*eG*eA*e[5mC]*e[5mC]*eG*eG*eT*eT*e[5mC]*eA*e[5mC]*eT*eG*eT*eG*eA) [compound 327923]", "IGFBP1 mRNA expression": 119}
{"substance": "328397 (antisense eT*eT*eG*eA*eT*d[5mC]*d[5mC]*dA*dT*dA*dT*dG*d[5mC]*dA*dA*e[5mC]*eA*eA*eG*eG) [compound 328397]", "IGFBP1 mRNA expression": 57}
{"substance": "327952 (antisense e[5mC]*eT*eA*e[5mC]*eG*e[5mC]*eG*eT*eA*eT*eT*e[5mC]*eT*eT*eA*eA*eG*e[5mC]*eA*eA*eT*eA) [compound 327952]", "IGFBP1 mRNA expression": 103}
{"substance": "327957 (antisense e[5mC]*eA*e[5mC]*eA*eA*eG*eT*eT*e[5mC]*eG*eG*eA*eT*e[5mC]*eT*eA*e[5mC]*eG*eG*eG*eT*eT) [compound 327957]", "IGFBP1 mRNA expression": 184}
